target: Human immunodeficiency virus type 1 reverse transcriptase (Human immunodeficiency virus 1); assay: Inhibition of RNase H activity of HIV-1 reverse transcriptase
Measurement Name: IC50 (nM)
Answers are plain numbers, in nM.

So what IC50 did CC(C)c1ccc(O)c(=O)c(O)c1 get with Human immunodeficiency virus type 1 reverse transcriptase (Human immunodeficiency virus 1)?
250

* * *

biological target: Human immunodeficiency virus type 1 reverse transcriptase (Human immunodeficiency virus 1); experiment: Inhibition of RNase H activity of HIV-1 HXB2 reverse transcriptase p66/p51 after 10 mins by fluorescence spectrophotometry
Kindly supply the reported IC50 values for the records listed here.
Answers are plain numbers, in µM.

Previously resolved entries follow.
molecule=Cc1onc(-c2ccccc2)c1C(=O)Nc1sc(C)c(C)c1C(N)=O measurement_name=IC50 unit_text=µM readout_number=2.9
molecule=Cc1sc(NC(=O)c2ccc(Br)o2)c(C(N)=O)c1C measurement_name=IC50 unit_text=µM readout_number=1.7

// batch mode: one IC50 value per listed entry
1. Cc1sc(NC(=O)C2CCCO2)c(C(N)=O)c1C (stereo unspecified)
2. NC(=O)c1c(NC(=O)COc2ccccc2)sc2c1CCCCC2
3. Cc1sc(NC(=O)C2CC3CCC2C3)c(C(N)=O)c1C (stereo unspecified)
4. Cc1sc(NC(=O)c2ccco2)c(C(N)=O)c1C

27.3
6.9
21
3.4

* * *

target: UniProt Q72547; assay: Inhibition of RNase H activity of HIV-1 HXB2 reverse transcriptase p66/p51 after 10 mins by fluorescence spectrophotometry
For each of the molecules below, state its IC50.

A selection of reference data follows.
smi=NC(=O)c1c(N)sc2c1CCC2 assay_target="UniProt Q72547" result="> 500 µM"
smi=Cc1ccc(NC(=O)c2c(NC(=O)c3ccccc3F)sc3c2CCCCC3)cc1 assay_target="UniProt Q72547" result="> 500 µM"
smi=Cc1sc2nc(-c3ccccc3)[nH]c(=O)c2c1C assay_target="UniProt Q72547" result="> 100 µM"
smi=Cc1sc(N)c(C(N)=O)c1C assay_target="UniProt Q72547" result="> 500 µM"
smi=NC(=O)c1ccsc1N assay_target="UniProt Q72547" result="> 500 µM"

Give its IC50 value. Item: Cc1cc(Cl)ccc1CCC(=O)Nc1sc(C)c(C)c1C(N)=O
> 500 µM

* * *

target: Human immunodeficiency virus type 1 reverse transcriptase (Human immunodeficiency virus 1); assay: Inhibition of RNase H activity of HIV-1 HXB2 reverse transcriptase p66/p51 after 10 mins by fluorescence spectrophotometry
pIC50: −log10 of the molar value.
Measurement Name: pIC50

Completed entries (count: 4):
smi=COc1ccc(-c2nc3sc(C)c(C)c3c(=O)[nH]2)cc1 result="< 4.00"
smi=NC(=O)c1c(N)sc2c1CCCCCC2 result="< 3.30"
smi=COc1ccccc1NC(=O)c1c(NC(=O)Cc2ccccc2)sc2c1CCCCC2 result="< 3.30"
smi=CCOc1ccc(NC(=O)c2c(NC(=O)c3ccccc3)sc3c2CCCCC3)cc1 result="< 3.30"

The record that follows has no pIC50 shown yet.
What is its pIC50 for Human immunodeficiency virus type 1 reverse transcriptase (Human immunodeficiency virus 1)? Entry: O=C(Nc1sc2c(c1C(=O)Nc1cccc3ccccc13)CCCCC2)c1ccccc1F
< 3.30
